- assayProcedure: cell-permeable autofluorescent compounds in GFP channel, dose response, artefact control, imaging, high-content imaging (AID 2124);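 note: cells exposed to compound for 48 hours before fixing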
- conditionSummary: cells, GFP-channel autofluorescence, high-content imaging; cell count; at 10 µM
Inconclusive results are not listed.
endpoint: cell count (cells)

Cc1cc(C)c2nc(NNC(=O)c3cc(-c4cccs4)nc4ccccc34)sc2c1    2740
COc1ccc(N(CCN2C(=O)c3ccccc3C2=O)C(=O)c2cccc([N+](=O)[O-])c2)cc1    2790
CCCCNC(=O)/C(C#N)=c1\s/c(=C\c2ccccc2OC(F)F)c(=O)n1CCCOC    3260
Oc1ccc(Cl)cc1C1=Nc2ccccc2N=C(c2ccco2)C1    2660
CCN(CC)c1ccc(/C=C(/C#N)C(=O)NC(C)C)o1    3080
COc1cccc(C(=O)CN2C(=O)C(C)(C)Oc3ccc(C(=O)N4CCCCCC4)cc32)c1    3680
COCc1cc(C)nc(Nc2ccccc2C)c1C#N    3240
Cn1c(C(=O)N2CCC(C(=O)N3CCN(Cc4ccc5c(c4)OCO5)CC3)CC2)cc2sccc21    2820
C=CCNC(=O)c1c2c(nc3ccccc13)-c1ccccc1CC2    3270
O=C1S/C(=C/c2ccc(N3CCOCC3)o2)C(=O)N1Cc1c(F)cccc1Cl    3280
COc1cccc(/C=N/NC(=O)c2oc3nc(-c4ccccc4)cc(-c4ccco4)c3c2N)c1    3030
CN(c1cccc(Cl)c1)S(=O)(=O)c1cccc(C(=O)NC2=NCCS2)c1    3260
O=C(COc1ccc(Cl)cc1)NCc1nnc(SCC(=O)NC2CCCCC2)o1    3660
O=C(NN=C1CCN(Cc2ccccc2)CC1)c1cccc(S(=O)(=O)Nc2ccccc2Cl)c1    3200
Cn1c(=O)n(C)c2cc(NC(=O)COc3ccc(Cl)cc3)ccc21    3010
O=C(/C=C/c1ccc(N2CCC(c3ccccc3)=N2)cc1)c1ccccc1    2900
COC(=O)c1c[nH]n2c(=O)c(Cc3ccc(F)cc3Cl)c(C)nc12    3100
COc1ccc(OCCn2cc(/C(N)=N/O)c3ccccc32)cc1    2930
CCOc1ccc(C2C(C(=O)O)c3ccccc3C(=O)N2CCN2CCOCC2)cc1 (stereo unspecified)    3370
CSc1c(C#N)c(N)nc2sc(C(=O)c3ccc(Cl)c(Cl)c3)c(N)c12    2770
O=C(CCl)Nc1cccc2ncccc12    2060
